B1: DLC1 (parent)
chain: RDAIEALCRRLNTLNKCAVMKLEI

- Variants of: B1
- method.notes: protein stability index of a GFP-peptide fusion (GPS, HEK-293T) (PSI 1-6); higher = more stable;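 note: lentivirally expressed fusions sorted by FACS into six bins by GFP to DsRed ratio, PSI derived from sequencing read proportions per bin multiplied by bin number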
- condition.description: c terminus: a fixed tail appended
For each record, write down the corresponding protein stability index.
Please respond with just the number, no unit label.

# protein stability index lookup, item C17E
2

# protein stability index lookup, item A6R
2.92

# protein stability index lookup, item L14A
1.68

# protein stability index lookup, item I24W
1.66

# protein stability index lookup, item I4F
3.05

# protein stability index lookup, item A6M
2.97

# protein stability index lookup, item A6C
3.07

# protein stability index lookup, item A18P
1.82

# protein stability index lookup, item C17I
3.57

# protein stability index lookup, item N12F
2.97

# protein stability index lookup, item R1K
2.23

# protein stability index lookup, item A6H
3.17

# protein stability index lookup, item E23H
2.39

# protein stability index lookup, item L14D
1.37

# protein stability index lookup, item I24Y
1.29

# protein stability index lookup, item K16C
2.44

# protein stability index lookup, item A18D
2.78

# protein stability index lookup, item V19N
1.89

# protein stability index lookup, item E5A
2.3

# protein stability index lookup, item V19Q
1.84

# protein stability index lookup, item E5I
2.84

# protein stability index lookup, item K21N
1.61
